Molecular target: recombinant human LRP1 cluster II (Homo sapiens, UniProt Q07954)
Construct: R&D Systems, amino acids 786-1165, with C-terminal Fc tag; purchased R&D Systems
Sequence (Q07954 805-1184): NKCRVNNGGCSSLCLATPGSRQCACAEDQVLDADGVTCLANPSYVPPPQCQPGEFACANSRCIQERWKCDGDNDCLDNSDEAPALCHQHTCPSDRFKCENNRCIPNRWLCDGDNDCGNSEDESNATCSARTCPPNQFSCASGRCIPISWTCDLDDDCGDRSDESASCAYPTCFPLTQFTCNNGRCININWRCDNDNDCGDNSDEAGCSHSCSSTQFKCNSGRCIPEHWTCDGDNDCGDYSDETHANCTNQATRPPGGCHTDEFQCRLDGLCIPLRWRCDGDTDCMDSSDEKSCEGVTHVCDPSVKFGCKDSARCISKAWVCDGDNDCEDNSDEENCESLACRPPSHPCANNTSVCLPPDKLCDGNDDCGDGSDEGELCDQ
Assay: Solid phase binding assay, affinity for LRP1 cluster II
pKd: −log10 of the molar value. Bridge positions count the residues as written; N and C are the ends. * marks the point of attachment. Biotin = O=C1N[C@H]2[C@H](CS[C@H]2CCCCC(=O)*)N1
TEST_READOUT: pKd

SUBSTANCE: Biotin-GGSGGCGKHFEAKIEKHNHYQKQLEIAHEKLRHAESVGDGERVSRSREKHALLEGRTKELGYTVKKHLQDGC (disulfide 6-72 (inferred)) [mRAP-8c]
pKd: ~8.40

Here is another substance to look at.
Challenge: Entry Biotin-GGSGGCEAKIEKHNHYQKQLEIAHEKLRHAESVGDGERVSRSREKHALLEGRTKELGYTVKKHGC (disulfide 6-65 (inferred)) [mRAP-14c] , system recombinant human LRP1 cluster II (Homo sapiens, UniProt Q07954): what pKd was measured?
Response given: ~7.68
